Origin of values: patent US20240270821A1

Target of assay: hGLP-1R (Homo sapiens, UniProt P43220)
Sequence (P43220 24-463): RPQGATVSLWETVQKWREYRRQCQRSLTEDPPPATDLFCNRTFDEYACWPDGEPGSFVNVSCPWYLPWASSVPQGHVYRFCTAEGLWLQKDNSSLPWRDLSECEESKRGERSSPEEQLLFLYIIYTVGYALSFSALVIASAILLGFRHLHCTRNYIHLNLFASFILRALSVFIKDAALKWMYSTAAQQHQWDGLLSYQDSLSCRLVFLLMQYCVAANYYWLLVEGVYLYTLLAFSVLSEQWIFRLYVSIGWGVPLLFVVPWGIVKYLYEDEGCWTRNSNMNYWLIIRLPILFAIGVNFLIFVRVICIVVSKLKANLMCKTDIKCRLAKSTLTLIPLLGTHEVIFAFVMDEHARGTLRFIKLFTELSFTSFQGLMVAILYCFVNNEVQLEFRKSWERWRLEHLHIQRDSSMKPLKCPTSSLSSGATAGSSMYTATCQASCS
Experiment notes: Functional cAMP activation in the presence of 0.1% casein (no HSA);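 further: intracellular cAMP rise after 30 min at 37 °C read by HTRF, normalized between buffer only (0%) and maximal control ligand (100%), four-parameter variable-slope fit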
Assay type: cell-based
Condition label: read-out: Relative cAMP EC50, hGLP-1R
pEC50: −log10 of the molar value. Starred links: 1 amine or outer side, 2 acyl side, 3 side chain; linkers in the order of their positions; H or OH if unused. Non-standard residues stand in square brackets, D forms with d. Groups on a side chain read outwards from the residue. No end group written: not given here. *: point of attachment. C18 diacid = O=C(O)CCCCCCCCCCCCCCCCC(=O)*; αMePhe(2-F) = C[C@](N)(Cc1ccccc1F)C(=O)O; γGlu = O=C(O)[C@H](CCC(=O)[*:2])N[*:1]; αMe4Pal = C[C@](N)(Cc1ccncc1)C(=O)O; αMeY = C[C@](N)(Cc1ccc(O)cc1)C(=O)O; 4Pal = N[C@@H](Cc1ccncc1)C(=O)O; αMeL = CC(C)C[C@](C)(N)C(=O)O; αMeS = C[C@](N)(CO)C(=O)O; Orn = NCCC[C@H](N)C(=O)O; AEEA = NCCOCCOCC(=O)O; Aib = CC(C)(N)C(=O)O
// pEC50 lookup, one value per entry
Measurement kind: pEC50

H-Y[Aib]QGT[αMePhe(2-F)]TSDYSILLDKK([γGlu-γGlu-C18 diacid])AQ[Aib]AFIEYLEEGGPSSGAPPPEEG-NH2 [Example 471] : 9.50
H-Y[Aib]QGT[αMePhe(2-F)]TSD[4Pal]SI[αMeL]LD[Orn]K([AEEA-γGlu-C18 diacid])AQ[αMe4Pal][Orn]FI[dE][αMeY]LIEGGPSSGDPPPETE-NH2 [Example 730] : 9.61
Y[Aib]QGT[αMePhe(2-F)]TSD[4Pal][αMeS]I[αMeL]LD[Orn]K([γGlu-γGlu-C18 diacid])AQ[Aib][Orn]FI[dE][αMeY]LSEGGPSSGEPPPSGSEE-NH2 [Example 569] : 8.95
H-Y[Aib]QGT[αMePhe(2-F)]TSD[4Pal][αMeS]I[αMeL]LD[Orn]K([γGlu-γGlu-C18 diacid])AQ[Aib][Orn]FI[dE][αMeY]LIEGGPSSGEPPPSEG-NH2 [Example 480] : 9.67
H-Y[Aib]QGT[αMePhe(2-F)]TSD[4Pal][αMeS]ILLD[Orn]K([γGlu-γGlu-C18 diacid])AQ[Aib][Orn]FI[dE][αMeY]LQEGGPSSGEPPPSGAE-NH2 [Example 547] : 9.47
